# Test system: luciferase-expressing Pichia pastoris
# Assay type: cell-based
# CONDITION_LABEL: surfactant 0.03 wt % of broth, 8 hours, Examples 13, 16-22
MEASUREMENT_KIND: Secretion efficiency (%)

Some solved cases for reference:
CCCCCCCCCCCC[N+](C)(C)C.[Cl-] [Surfactant (A2-1), lauryl trimethyl ammonium chloride]	88%
CCCCCCCCCCCCNCCC(=O)O	80%
CCCCCCCCCCCC[N+](C)(C)CCCS(=O)(=O)O.[OH-]	75%
CCCCCCCCCCCCCCCCOP(=O)([O-])OCC[N+](C)(C)C [Surfactant (A3-4), miltefosine, reference compound]	66%

Quick check: Secretion efficiency (%) on luciferase-expressing Pichia pastoris, item CCCCCCCCCCCC[N+](C)(C)CC(=O)[O-] [Surfactant (A3-5), betaine lauryldimethylaminoacetate] ?
90%

* * *

Secretion efficiency (%) by entry:
# Tested on: acid phosphatase-expressing Candida boidinii
# Type: cell-based
# CONDITION_LABEL: surfactant 0.03 wt % of broth, 8 hours, Examples 24, 27-33
# Procedure: Candida boidinii was transformed and acid phosphatase-expressing microorganisms were produced based on a method described in a known document (Regulation and evaluation of five methanol-inducible promoters in the methylotrophic yeast Candida boidinii, H. Yurimoto et al., Biochimica et Biophysica Acta, 1493, 2000, pp. 56-63). […] The acid phosphatase activity of each of the supernatant and the sample for measuring the bacterial surface was calculated from the following formula. […]
All answers are understood in %, so give the number only.

Some compounds with recorded Secretion efficiency (%):
CCCCCCCCCCCCNCCC(=O)O	63
CCCCCCCCCCCCCCCCOP(=O)([O-])OCC[N+](C)(C)C [Surfactant (A3-4), miltefosine, reference compound]	54
CCCCCCCCCCCC[N+](C)(C)C.[Cl-] [Surfactant (A2-1), lauryl trimethyl ammonium chloride]	61
CCCCCCCCCCCC[N+](C)(C)CC(=O)[O-] [Surfactant (A3-5), betaine lauryldimethylaminoacetate]	61

Here is another compound to look at.
Look up Secretion efficiency (%) for this compound: CCCCCCCCCCCC[N+](C)(C)CCCS(=O)(=O)O.[OH-]
54
